Assay: Selectivity index, ratio of CC50 for cytotoxicity against human MT4 cells to EC50 for antiviral activity against HIV-1 RES056 harboring RT K103N/Y181C double mutant infected in human MT4 cells
Format: toxicity, cell-based
Details: read-out: Ratio CC50/EC50
selectivity ratio overview
measure.name: selectivity ratio

- chemical.string: "Cc1cc(C#N)cc(C)c1Oc1nc(NC2CCN(c3c(F)cc(NS(N)(=O)=O)cc3F)CC2)nc2sccc12"
  measured.result: "< 1"
- chemical.string: "Cc1cc(C#N)cc(C)c1Oc1nc(NC2CCN(c3c(F)cc(N)cc3F)CC2)nc2sccc12"
  measured.result: "< 1"
- chemical.string: "Cc1cc(/C=C/C#N)cc(C)c1Oc1nc(NC2CCN(c3c(F)cc([N+](=O)[O-])cc3F)CC2)nc2sccc12"
  measured.result: "> 8"
